Here, each record is paired with measured Activity data.
- Tested on: Botrytis cinerea
- Measurement protocol: Antifungal activity against Benzimidalzole-resistant Botryotinia fuckeliana isolate Bc-44 infected compound-treated kidney bean leaves at 200 ppm after 4 days
- Assay type: functional
Report the figure in % without appending any unit label.

- Compound: "COC(=O)NC(=S)Nc1ccccc1NC(=S)NC(=O)OC [THIOPHANATE METHYL]"
  Experimental system: "Botrytis cinerea"
  Measured metric: "Activity"
  Numeric readout: 5

// query Need Activity of "C#CCOc1c(Cl)cc(N/C=N/OC)cc1Cl" , thanks.
// result 100

// query Need Activity of C=CC1(C)OC(=O)N(c2cc(Cl)cc(Cl)c2)C1=O (centres undefined) [VINCLOZOLIN] , thanks.
// result 100

// query Need Activity of "C#CCOc1cc(N/C=N/OC)cc(Cl)c1OCC#C" , thanks.
// result 100
